Target system: recombinant human F16BPase (Homo sapiens, UniProt P09467)
Sequence (P09467 whole entry): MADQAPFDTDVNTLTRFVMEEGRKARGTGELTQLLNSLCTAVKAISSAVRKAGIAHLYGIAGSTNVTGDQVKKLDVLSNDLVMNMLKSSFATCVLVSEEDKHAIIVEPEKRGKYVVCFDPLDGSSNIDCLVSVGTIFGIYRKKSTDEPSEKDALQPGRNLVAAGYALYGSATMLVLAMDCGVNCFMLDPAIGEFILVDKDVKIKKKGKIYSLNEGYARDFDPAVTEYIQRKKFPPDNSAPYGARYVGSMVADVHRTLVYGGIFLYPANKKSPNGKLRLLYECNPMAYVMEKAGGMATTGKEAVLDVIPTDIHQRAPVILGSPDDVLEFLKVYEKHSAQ
Experimental parameters: read-out: IC50 against the human enzyme; allosteric inhibitor; 40 minutes at room temperature without preincubation of compound with enzyme
Readout name: IC50 (nM)
Field: numeric (nM). Do not append units.

Recorded IC50 for Nc1ncnc2c1ncn2[C@@H]1O[C@H](COP(=O)(O)O)[C@@H](O)[C@H]1O [AMP, adenosine 5′-monophosphate] , please?
800
